What follows is a record of IC50 or % Inhibition Factor Xa (30 µM) for Human factor Xa (Homo sapiens).
PROPERTY: IC50 or % Inhibition Factor Xa (30 µM)

INSERT INTO results (compound, readout_value) VALUES
  ('N=C(N)c1ccc(CNC(=O)Cn2c(-c3ccccc3)c(Cl)nc(NCc3ccccc3Cl)c2=O)cc1 [1507-03]', '21%'),
  ('N=C(N)c1ccc(CNC(=O)Cn2c(-c3cccc(Cl)c3)c(Cl)nc(NCCc3ccccc3)c2=O)cc1 [1471-31]', '17%'),
  ('N=C(N)c1ccc(CNC(=O)Cn2c(-c3ccc(Cl)cc3)c(Cl)nc(NCCc3ccccc3)c2=O)cc1 [1471-23]', '36%'),
  ('Cc1c(Cl)nc(NCCc2ccc(Cl)cc2)c(=O)n1CC(=O)NCc1ccc(C(=N)N)cc1 [1471-2]', '10%');

----------
TGT: UniProt:P00742
PROPERTY: IC50 or % Inhibition Factor Xa (30 µM) (%)

INSERT INTO measurements (molecule, property, unit_label, readout_value) VALUES
  ('COc1ccc(-c2c(Cl)nc(NCCN3CCOCC3)c(=O)n2CC(=O)NCc2ccc(C(=N)N)cc2)cc1', 'IC50 or % Inhibition Factor Xa (30 µM)', '%', 6),
  ('N=C(N)c1ccc(CNC(=O)Cn2c(-c3c(Cl)cccc3Cl)c(Cl)nc(NCCc3cccc(Cl)c3)c2=O)cc1', 'IC50 or % Inhibition Factor Xa (30 µM)', '%', 0),
  ('N=C(N)c1ccc(CNC(=O)Cn2c(-c3ccccc3)c(Cl)nc(NC3CCCCC3)c2=O)cc1', 'IC50 or % Inhibition Factor Xa (30 µM)', '%', 0),
  ('N=C(N)c1ccc(CNC(=O)Cn2c(-c3c(Cl)cccc3Cl)c(Cl)nc(NCCc3ccccc3)c2=O)cc1', 'IC50 or % Inhibition Factor Xa (30 µM)', '%', 0),
  ('N=C(N)c1ccc(CNC(=O)Cn2c(-c3ccccc3)c(Cl)nc(NCc3ccccc3OC(F)(F)F)c2=O)cc1', 'IC50 or % Inhibition Factor Xa (30 µM)', '%', 1),
  ('Cc1c(Cl)nc(NCc2ccccc2)c(=O)n1CC(=O)NCc1ccc(C(=N)N)cc1', 'IC50 or % Inhibition Factor Xa (30 µM)', '%', 10),
  ('N=C(N)c1ccc(CNC(=O)Cn2c(-c3ccccc3)c(Cl)nc(NCc3cc(C(F)(F)F)ccc3F)c2=O)cc1', 'IC50 or % Inhibition Factor Xa (30 µM)', '%', 3),
  ('N=C(N)c1ccc(CNC(=O)Cn2c(-c3ccccc3)c(Cl)nc(NCCC3=CCCCC3)c2=O)cc1', 'IC50 or % Inhibition Factor Xa (30 µM)', '%', 16),
  ('CN1CCCC1CCNc1nc(Cl)c(-c2ccccc2)n(CC(=O)NCc2ccc(C(=N)N)cc2)c1=O (stereo not shown)', 'IC50 or % Inhibition Factor Xa (30 µM)', '%', 10),
  ('CC(C)Nc1ncc(-c2cccc(N)c2)n(CC(=O)NCc2ccc(C(=N)N)c(F)c2)c1=O', 'IC50 or % Inhibition Factor Xa (30 µM)', '%', 0),
  ('CCNc1nc(Cl)c(-c2cccc(N)c2)n(CC(=O)NCc2ccc(C(=N)N)cc2F)c1=O', 'IC50 or % Inhibition Factor Xa (30 µM)', '%', 8),
  ('N=C(N)c1ccc(CNC(=O)Cn2c(-c3ccccc3)c(Cl)nc(NCCc3ccccn3)c2=O)cc1', 'IC50 or % Inhibition Factor Xa (30 µM)', '%', 13),
  ('N=C(N)c1ccc(CNC(=O)Cn2c(-c3ccccc3)c(Cl)nc(NCC3COc4ccccc4O3)c2=O)cc1 (stereo not shown)', 'IC50 or % Inhibition Factor Xa (30 µM)', '%', 4),
  ('CN(C)CCNc1nc(Cl)c(-c2ccccc2)n(CC(=O)NCc2ccc(C(=N)N)cc2)c1=O', 'IC50 or % Inhibition Factor Xa (30 µM)', '%', 6),
  ('CN(C)CCNc1nc(Cl)c(-c2cccc(N)c2)n(CC(=O)NCc2ccc(C(=N)N)cc2)c1=O', 'IC50 or % Inhibition Factor Xa (30 µM)', '%', 12),
  ('N=C(N)c1ccc(CNC(=O)Cn2c(-c3cccc(N)c3)c(Cl)nc(NCCCO)c2=O)cc1', 'IC50 or % Inhibition Factor Xa (30 µM)', '%', 12);

Where these numbers come from: patent EP1202975B1
